Source of measurements: patent US11807625B2

# assay.comment: PK of compound of Formula (Ia) after single subcutaneous dose of solution formulations in Wistar Han rats
# Assay type: in vivo
# condition.notes: male, Wistar Han, rat, plasma, sc, 50 mg/kg, Wistar Han rats, SC 50 mg/kg, 500 mg/mL solution X (5.00% ethanol, 1.91% poloxamer 188), 336 h, Mean n = 3
observed.property: concentration at 336 h

// query concentration at 336 h value for entry CC(C)(C#Cc1ccc(-c2ccc(Cl)c3c(NS(C)(=O)=O)nn(CC(F)(F)F)c23)c([C@H](Cc2cc(F)cc(F)c2)NC(=O)Cn2nc(C(F)(F)F)c3c2C(F)(F)[C@@H]2C[C@H]32)n1)S(C)(=O)=O 233 nM
